The entries below are paired with their reported screen value.
B1: MBOAT1 peptide 17-32 (Lysophospholipid acyltransferase 1), 16-mer library wild type / NSP3 ADRP (ORF1ab Nsp3b ADRP, residues 1023-1192) (parent)
chain 1: STYLHPLSELLGIPLD
chain 2: not shown

# Variants of: B1
# condition_summary: with NSP3 ADRP (ORF1ab Nsp3b ADRP, residues 1023-1192); bait immobilised on MaxiSorp plates (10 µg), library pre-cleared on GST, 2 h binding at 4 °C, five washes; one round per day, days 1-4; value from days 2 and 3; keep out of graded; scale: average fractional NGS count over selection days 2 and 3

I am curious: what screen value value has been reported for chain 1 P14S ?
1.48e-05

What value of screen value has been reported for the following variant? chain 1 L11I
0.000109
